# Test system: Pyricularia oryzae
# protocol text: whole plant or invertebrate
# Type: in vivo
# test context: barley, foliar, 1,000 mg/l
property label: Percent Reduction of Disease, PYR ORY (%)
Give bare numbers, in %.

Example molecules with recorded Percent Reduction of Disease, PYR ORY:
If you can, please state the reported Percent Reduction of Disease, PYR ORY value of CCCCC(C#N)(CCc1ccc(OCCC)cc1)c1cccnc1 (stereo not shown) . 0

If you can, please state the reported Percent Reduction of Disease, PYR ORY value of CCCCC(C#N)(CCc1ccc(OCC)cc1)c1cccnc1.Cl (stereo not shown) . 67

If you can, please state the reported Percent Reduction of Disease, PYR ORY value of C=CCC(C#N)(CCc1ccc(OC)cc1)c1ccccn1 (stereo not shown) . 85

If you can, please state the reported Percent Reduction of Disease, PYR ORY value of COc1ccc(CCC(C#N)(CC(C)C)c2ccccn2)cc1 (stereo not shown) . 85

If you can, please state the reported Percent Reduction of Disease, PYR ORY value of CCCCC(C#N)(CCc1ccc(OC)cc1)c1ccccn1 (stereo not shown) [Compound 27] . 70

Below are some molecules; for each one, tell me its Percent Reduction of Disease, PYR ORY.
1. CCCCCC(C#N)(CCc1ccc(OC)cc1)c1ccccn1 (stereo not shown)
2. CC(C)CCC(C#N)(CCc1ccc(F)cc1)c1cccnc1 (stereo not shown) [Compound 49]
3. CC(C)CCC(C#N)(CCc1ccc(F)cc1)c1cccnc1 (stereo not shown) [Compound 55]
4. CCCCC(C#N)(CCc1ccc(OC)cc1)c1ccccn1 (stereo not shown) [Compound 31]
5. N#CC(CCCc1ccc(Cl)cc1)(CC1CC1)c1ccccn1 (stereo not shown)

[100, 17, 70, 0, 100]
